# System: A673 cells
# assayDetails: siRNA silencing of EWS-FLI1 followed by auranofin treatment (CellTiter-Blue)
# Format: cell-based
# recordedConditions: siControl 48 h, then auranofin 72 h, read-out: IC50 (siControl)
measuredProperty: IC50 (nM)
The figure you give is taken to be in nM; do not add the unit.

Entry under review: CC(=O)OC[C@H]1O[C@@H]([S-])[C@H](OC(C)=O)[C@@H](OC(C)=O)[C@@H]1OC(C)=O.CCP(CC)CC.[Au+] [Auranofin, auranofin] . Reported IC50?
270

###

# System: A673
# assayDetails: Hits validation, dose-response cell proliferation (CellTiter-Glo)
# Format: cell-based
# recordedConditions: Homo sapiens, A673; 12-point dose-response 50 μmol/L to 1 nmol/L, mean ± SD
pIC50: −log10 of the molar value.
Recorded pIC50, one value per entry.

Known results for compounds:
compound	pIC50
COc1c2ccoc2nc2c(OC)c(OCC(O)C(C)(C)O)ccc12 (stereo not shown)	< 4.30
CC[C@]1(O)C[C@@H]2CN(CCc3c([nH]c4ccccc34)[C@@](C(=O)OC)(c3cc4c(cc3OC)N(C)[C@H]3[C@@](O)(C(N)=O)[C@H](O)[C@]5(CC)C=CCN6CC[C@]43[C@@H]65)C2)C1	> 8.52

Entry under review: CC(=O)[C@H]1CC[C@H]2[C@@H]3CCC4=CC(=O)CC[C@]4(C)[C@H]3CC[C@]12C . Reported pIC50?
< 4.30

Likewise for COc1cc2nc(N3CCN(C(=O)C4COc5ccccc5O4)CC3)nc(N)c2cc1OC (stereo not shown) ?
5.25

###

# System: SK-ES-1
# assayDetails: In vitro high-throughput screen of FDA-approved drug library (CellTiter-Glo)
# Format: cell-based
# recordedConditions: Homo sapiens, SK-ES1; 1 μmol/L drug, 72 hours; read-out: % Inhibition SK-ES-1
Recorded inhibition at 1 µM, one value per entry.

Known results for compounds:
compound	inhibition at 1 µM
COc1c(C)c2c(c(O)c1C/C=C(\C)CCC(=O)O)C(=O)OC2 [Mycophenolic Acid]	< 50%
Cc1nc2ccc(CN(C)c3ccc(C(=O)N[C@@H](CCC(=O)O)C(=O)O)s3)cc2c(=O)[nH]1 [Raltitrexed]	51%
O=c1c2ccccc2[se]n1-c1ccccc1 [Ebselen]	96%
CCC(C)(C)c1ccc(CC(C)CN2C[C@@H](C)O[C@@H](C)C2)cc1 (stereo partly shown) [Amorolfine]	< 50%
Nc1nc(=S)c2ncn([C@@H]3O[C@H](CO)[C@@H](O)[C@H]3O)c2[nH]1 [Thioguanosine]	64%
O=c1[nH]c(=O)n([C@H]2C[C@H](O)[C@@H](CO)O2)cc1C(F)(F)F [Trifluridine]	< 50%

Entry under review: CCCCCC[C@H]1C(=O)O[C@H](C)[C@H](NC(=O)c2cccc(NC=O)c2O)C(=O)O[C@@H](C)[C@@H]1OC(=O)CC(C)C [Antimycin A] . Reported inhibition at 1 µM?
< 50%

###

# Test system: SK-ES-1
# assayDetails: In vitro high-throughput screen of FDA-approved drug library (CellTiter-Glo)
# Format: cell-based
# recordedConditions: Homo sapiens, SK-ES1; 1 μmol/L drug, 72 hours; read-out: % Inhibition SK-ES-1
Recorded inhibition at 1 µM, one value per entry.
The figure you give is taken to be in %; do not add the unit.

Known results for compounds:
compound	result
CCN(CC)C(=S)SSC(=S)N(CC)CC	95
O=c1[nH]c(=O)n([C@H]2C[C@H](O)[C@@H](CO)O2)cc1F	56
COC(=O)Nc1nc2ccc(Sc3ccccc3)cc2[nH]1	78

Entry under review: COC(=O)Nc1nc2cc(C(=O)c3ccc(F)cc3)ccc2[nH]1 . Reported inhibition at 1 µM?
86

Likewise for S=c1[nH]cnc2nc[nH]c12 ?
57

Likewise for CCCOc1ccc2nc(NC(=O)OC)[nH]c2c1 ?
84

Likewise for Cn1cnc([N+](=O)[O-])c1Sc1ncnc2nc[nH]c12 ?
52

Likewise for CO[C@H]1C[C@@H]2CC[C@@H](C)[C@@](O)(O2)C(=O)C(=O)N2CCCC[C@H]2C(=O)O[C@H]([C@H](C)C[C@@H]2CC[C@@H](O)[C@H](OC)C2)CC(=O)[C@H](C)/C=C(\C)[C@@H](O)[C@@H](OC)C(=O)[C@H](C)C[C@H](C)/C=C/C=C/C=C/1C ?
51

Likewise for CCOC(=O)C1=C[C@@H](OC(CC)CC)[C@H](NC(C)=O)[C@@H](N)C1 ?
98

Likewise for C[C@@H]1C[C@@H]([C@H](O)CC2CC(=O)NC(=O)C2)C(=O)[C@@H](C)C1 [Cycloheximide] ?
81

Likewise for CC(=O)O[C@H]1C(=O)[C@@]2(C)[C@H]([C@H](OC(=O)c3ccccc3)[C@]3(O)C[C@H](OC(=O)[C@H](O)[C@@H](NC(=O)c4ccccc4)c4ccccc4)C(C)=C1C3(C)C)[C@]1(OC(C)=O)CO[C@@H]1C[C@@H]2O ?
96

Likewise for Cc1cc(/C=C/c2ccc3cc(N(C)C)ccc3[n+]2C)c(C)n1-c1ccccc1 [Pyrvinium pamoate] ?
96
